assay-target: human cholecystokinin-1 receptor (CCK-1R) (Homo sapiens)
Construct: host or cells: 1321-N1 cells
Sequence (P32238 whole entry): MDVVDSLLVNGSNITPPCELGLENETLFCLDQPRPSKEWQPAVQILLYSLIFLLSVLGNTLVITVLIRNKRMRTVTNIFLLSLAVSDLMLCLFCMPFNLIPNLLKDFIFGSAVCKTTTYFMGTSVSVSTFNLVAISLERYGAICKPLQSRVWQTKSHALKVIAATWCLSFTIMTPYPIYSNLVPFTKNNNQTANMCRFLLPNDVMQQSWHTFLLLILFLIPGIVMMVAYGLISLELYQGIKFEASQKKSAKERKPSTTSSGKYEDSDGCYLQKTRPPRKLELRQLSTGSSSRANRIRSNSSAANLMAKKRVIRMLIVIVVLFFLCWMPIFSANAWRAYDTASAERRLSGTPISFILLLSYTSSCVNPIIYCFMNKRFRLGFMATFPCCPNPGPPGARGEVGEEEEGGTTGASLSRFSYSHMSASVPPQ
run-description: In vitro receptor binding to CCK-1R, SPA displacement of [125I]-CCK-8s from plasma membranes
protocol-conditions: ratio of binding IC50 values; >1 = preference for CCK-1R
Starred links: 1 amine or outer side, 2 acyl side, 3 side chain; linkers in the order of their positions; H or OH if unused. Non-standard residues stand in square brackets, D forms with d. Residues, ends and D or L forms follow the SMILES beside them. *: point of attachment. Phe(4-CH2SO3H) = N[C@@H](Cc1ccc(CS(=O)(=O)O)cc1)C(=O)O; sY = N[C@@H](Cc1ccc(OS(=O)(=O)O)cc1)C(=O)O; C18 diacid = O=C(O)CCCCCCCCCCCCCCCCC(=O)*; γGlu = O=C(O)[C@H](CCC(=O)[*:2])N[*:1]; βAsp = O=C(O)[C@H](CC(=O)[*:2])N[*:1]; NMeF = CN[C@@H](Cc1ccccc1)C(=O)O; dNMeD = CN[C@H](CC(=O)O)C(=O)O; Nle = CCCC[C@H](N)C(=O)O; AEEA = NCCOCCOCC(=O)O
metric-name: CCK-1R binding selectivity (IC50 (CCK-2R)/IC50 (CCK-1R))
Respond numerically, and do not add a unit to the figure.

Task: Endpoint output: CCK-1R binding selectivity (IC50 (CCK-2R)/IC50 (CCK-1R)) of CCCC[C@H](NC(=O)[C@H](Cc1c[nH]c2ccccc12)NC(=O)CNC(=O)[C@H](CO)NC(=O)[C@H](Cc1ccc(OS(=O)(=O)O)cc1)NC(=O)[C@H](CC(=O)O)NC(=O)COCCOCCNC(=O)COCCOCCNC(=O)CC[C@H](NC(=O)CCCCCCCCCCCCCCCCC(=O)O)C(=O)O)C(=O)N(C)[C@H](CC(=O)O)C(=O)N(C)[C@@H](Cc1ccccc1)C(N)=O [Example 45] ({C18 diacid-γGlu-AEEA-AEEA}-D[sY]SGW[Nle][dNMeD][NMeF]-NH2) . Value?
Output: 82000

Task: Endpoint output: CCK-1R binding selectivity (IC50 (CCK-2R)/IC50 (CCK-1R)) of CCCC[C@H](NC(=O)[C@H](Cc1ccc(CS(=O)(=O)O)cc1)NC(=O)C[C@H](N)C(=O)O)C(=O)NCC(=O)N[C@@H](Cc1c[nH]c2ccccc12)C(=O)N[C@@H](CCCC)C(=O)N(C)[C@H](CC(=O)O)C(=O)N(C)[C@@H](Cc1ccccc1)C(N)=O [Example 75] (βAsp-[Phe(4-CH2SO3H)][Nle]GW[Nle][dNMeD][NMeF]-NH2) . Value?
Output: 59000

###

assay-target: human cholecystokinin-2 receptor (CCK-2R) (Homo sapiens, UniProt P32239)
Construct: host or cells: 1321-N1 cells (plasma membranes prepared by Evotec AG Hamburg)
Sequence (P32239 whole entry): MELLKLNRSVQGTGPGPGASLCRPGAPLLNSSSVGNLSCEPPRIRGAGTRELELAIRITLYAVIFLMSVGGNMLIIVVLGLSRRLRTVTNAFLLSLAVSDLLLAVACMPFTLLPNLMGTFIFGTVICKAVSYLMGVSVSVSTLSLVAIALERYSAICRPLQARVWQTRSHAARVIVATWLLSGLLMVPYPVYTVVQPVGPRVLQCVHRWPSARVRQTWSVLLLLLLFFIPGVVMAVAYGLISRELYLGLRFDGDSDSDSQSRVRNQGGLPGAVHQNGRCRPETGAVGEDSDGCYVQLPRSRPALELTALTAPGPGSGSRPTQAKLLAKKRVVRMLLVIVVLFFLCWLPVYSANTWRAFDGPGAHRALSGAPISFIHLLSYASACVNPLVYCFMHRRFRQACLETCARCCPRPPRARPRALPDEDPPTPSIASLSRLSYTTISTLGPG
run-description: In vitro receptor binding to CCK-2R, SPA displacement of [125I]-CCK-8s from plasma membranes
Starred links: 1 amine or outer side, 2 acyl side, 3 side chain; linkers in the order of their positions; H or OH if unused. Non-standard residues stand in square brackets, D forms with d. Residues, ends and D or L forms follow the SMILES beside them. *: point of attachment. Phe(4-CH2SO3H) = N[C@@H](Cc1ccc(CS(=O)(=O)O)cc1)C(=O)O; sY = N[C@@H](Cc1ccc(OS(=O)(=O)O)cc1)C(=O)O; C18 diacid = O=C(O)CCCCCCCCCCCCCCCCC(=O)*; γGlu = O=C(O)[C@H](CCC(=O)[*:2])N[*:1]; Met(O2) = CS(=O)(=O)CC[C@H](N)C(=O)O; NMeF = CN[C@@H](Cc1ccccc1)C(=O)O; dNMeD = CN[C@H](CC(=O)O)C(=O)O; Nle = CCCC[C@H](N)C(=O)O; AEEA = NCCOCCOCC(=O)O
metric-name: IC50

Task: Endpoint output: IC50 of CCCC[C@H](NC(=O)[C@H](Cc1ccc(CS(=O)(=O)O)cc1)NC(=O)[C@H](CC(=O)O)NC(=O)COCCOCCNC(=O)COCCOCCNC(=O)CC[C@H](NC(=O)CCCCCCCCCCCCCCCCC(=O)O)C(=O)O)C(=O)NCC(=O)N[C@@H](Cc1c[nH]c2ccccc12)C(=O)N[C@@H](CCCC)C(=O)N(C)[C@H](CC(=O)O)C(=O)N(C)[C@@H](Cc1ccccc1)C(N)=O [Example 3] ({C18 diacid-γGlu-AEEA-AEEA}-D[Phe(4-CH2SO3H)][Nle]GW[Nle][dNMeD][NMeF]-NH2) . Value?
Output: > 10 µM

Task: Endpoint output: IC50 of CC(C)C[C@H](NC(=O)[C@H](Cc1ccc(OS(=O)(=O)O)cc1)NC(=O)[C@H](CC(=O)O)NC(=O)COCCOCCNC(=O)COCCOCCNC(=O)CC[C@H](NC(=O)CCCCCCCCCCCCCCCCC(=O)O)C(=O)O)C(=O)NCC(=O)N[C@@H](Cc1c[nH]c2ccccc12)C(=O)N[C@H](C(=O)N(C)[C@H](CC(=O)O)C(=O)N(C)[C@@H](Cc1ccccc1)C(N)=O)C(C)C [Example 14] ({C18 diacid-γGlu-AEEA-AEEA}-D[sY]LGWV[dNMeD][NMeF]-NH2) . Value?
Output: 6.4 µM

Task: Endpoint output: IC50 of CCCC[C@H](NC(=O)[C@H](Cc1c[nH]c2ccccc12)NC(=O)CNC(=O)[C@H](CCCCN)NC(=O)[C@H](Cc1ccc(OS(=O)(=O)O)cc1)NC(=O)[C@H](CC(=O)O)NC(=O)COCCOCCNC(=O)COCCOCCNC(=O)CC[C@H](NC(=O)CCCCCCCCCCCCCCCCC(=O)O)C(=O)O)C(=O)N(C)[C@H](CC(=O)O)C(=O)N(C)[C@@H](Cc1ccccc1)C(N)=O [Example 16] ({C18 diacid-γGlu-AEEA-AEEA}-D[sY]KGW[Nle][dNMeD][NMeF]-NH2) . Value?
Output: > 10 µM

Task: Endpoint output: IC50 of CC[C@H](C)[C@H](NC(=O)[C@H](Cc1c[nH]c2ccccc12)NC(=O)CNC(=O)[C@H](CC(C)C)NC(=O)[C@H](Cc1ccc(OS(=O)(=O)O)cc1)NC(=O)[C@@H](N)CC(=O)O)C(=O)N(C)[C@H](CC(=O)O)C(=O)N(C)[C@@H](Cc1ccccc1)C(N)=O [Example 61] (H-D[sY]LGWI[dNMeD][NMeF]-NH2) . Value?
Output: 6.1 µM

Task: Endpoint output: IC50 of CC(C)C[C@H](NC(=O)[C@H](Cc1ccc(OS(=O)(=O)O)cc1)NC(=O)[C@@H](N)CC(=O)O)C(=O)NCC(=O)N[C@@H](Cc1c[nH]c2ccccc12)C(=O)N[C@@H](CC(C)C)C(=O)N(C)[C@H](CC(=O)O)C(=O)N(C)[C@@H](Cc1ccccc1)C(N)=O [Example 64] . Value?
Output: > 10 µM

Task: Endpoint output: IC50 of CC(C)C[C@H](NC(=O)[C@H](Cc1ccc(OS(=O)(=O)O)cc1)NC(=O)[C@@H](N)CC(=O)O)C(=O)NCC(=O)N[C@@H](Cc1c[nH]c2ccccc12)C(=O)N[C@@H](CCS(C)(=O)=O)C(=O)N(C)[C@H](CC(=O)O)C(=O)N(C)[C@@H](Cc1ccccc1)C(N)=O [Example 63] (H-D[sY]LGW[Met(O2)][dNMeD][NMeF]-NH2) . Value?
Output: > 10 µM

Task: Endpoint output: IC50 of CC(C)C[C@H](NC(=O)[C@H](Cc1ccc(OS(=O)(=O)O)cc1)NC(=O)[C@H](CC(=O)O)NC(=O)COCCOCCNC(=O)COCCOCCNC(=O)CC[C@H](NC(=O)CCCCCCCCCCCCCCCCC(=O)O)C(=O)O)C(=O)NCC(=O)N[C@@H](Cc1c[nH]c2ccccc12)C(=O)N[C@@H](CCS(C)(=O)=O)C(=O)N(C)[C@H](CC(=O)O)C(=O)N(C)[C@@H](Cc1ccccc1)C(N)=O [Example 12] ({C18 diacid-γGlu-AEEA-AEEA}-D[sY]LGW[Met(O2)][dNMeD][NMeF]-NH2) . Value?
Output: > 10 µM

Task: Endpoint output: IC50 of CC(C)C[C@H](NC(=O)[C@H](Cc1ccc(OS(=O)(=O)O)cc1)NC(=O)[C@@H](N)CC(=O)O)C(=O)NCC(=O)N[C@@H](Cc1c[nH]c2ccccc12)C(=O)N[C@@H](CCC(N)=O)C(=O)N(C)[C@H](CC(=O)O)C(=O)N(C)[C@@H](Cc1ccccc1)C(N)=O [Example 62] (H-D[sY]LGWQ[dNMeD][NMeF]-NH2) . Value?
Output: > 10 µM

Task: Endpoint output: IC50 of CC[C@H](C)[C@H](NC(=O)[C@H](Cc1c[nH]c2ccccc12)NC(=O)CNC(=O)[C@H](CC(C)C)NC(=O)[C@H](Cc1ccc(OS(=O)(=O)O)cc1)NC(=O)[C@H](CC(=O)O)NC(=O)COCCOCCNC(=O)COCCOCCNC(=O)CC[C@H](NC(=O)CCCCCCCCCCCCCCCCC(=O)O)C(=O)O)C(=O)N(C)[C@H](CC(=O)O)C(=O)N(C)[C@@H](Cc1ccccc1)C(N)=O [Example 10] ({C18 diacid-γGlu-AEEA-AEEA}-D[sY]LGWI[dNMeD][NMeF]-NH2) . Value?
Output: 2.3 µM

Task: Endpoint output: IC50 of CC(C)C[C@H](NC(=O)[C@H](Cc1ccc(OS(=O)(=O)O)cc1)NC(=O)[C@H](CC(=O)O)NC(=O)COCCOCCNC(=O)COCCOCCNC(=O)CC[C@H](NC(=O)CCCCCCCCCCCCCCCCC(=O)O)C(=O)O)C(=O)NCC(=O)N[C@@H](Cc1c[nH]c2ccccc12)C(=O)N[C@@H](CCC(N)=O)C(=O)N(C)[C@H](CC(=O)O)C(=O)N(C)[C@@H](Cc1ccccc1)C(N)=O [Example 11] ({C18 diacid-γGlu-AEEA-AEEA}-D[sY]LGWQ[dNMeD][NMeF]-NH2) . Value?
Output: > 10 µM
